- TESTED SYSTEM: Follistatin-related protein 3 (Homo sapiens) (UniProt O95633)
- Sequence (O95633 whole entry, looked up): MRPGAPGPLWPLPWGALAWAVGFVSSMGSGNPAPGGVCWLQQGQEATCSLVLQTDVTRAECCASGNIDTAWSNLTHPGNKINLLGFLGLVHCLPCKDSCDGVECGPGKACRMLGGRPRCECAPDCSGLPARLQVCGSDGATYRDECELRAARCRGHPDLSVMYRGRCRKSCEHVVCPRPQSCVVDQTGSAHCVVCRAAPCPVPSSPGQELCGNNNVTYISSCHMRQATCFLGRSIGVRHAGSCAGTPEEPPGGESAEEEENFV
- METHOD SUMMARY: FSTL3 binders on small-molecule microarrays, primary screen, biochemical, small-molecule microarray, 635 nm fluorescence (AID 1105);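 also: score merges emission near 667 nm and signal to noise per printed spot across three slides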
- CONDITION INFO: FSTL3 binding, higher = more signal
Use true (1) when the recorded composite z-score is no lower than 0.7; use false (0) when it is lower.

C=C(CCCC)C(=O)CC[C@H](OC(C)=O)c1cccc(OCCO)c1 false (0)
O=C1O[C@H](c2ccccc2)[C@H](c2ccccc2)N2[C@H]1[C@@H](C(=O)Nc1nc3ccccc3s1)[C@]1(C(=O)Nc3ccc(C#CCCO)cc31)[C@H]2c1ccc(OCCO)cc1 true (1)
CCOC(=O)C[C@H]1[C@H](OC(=O)Cc2ccc3c(c2)OCO3)[C@@H](NC(=O)c2ccc(-c3ccccc3)cc2)c2cc(OCCCO)ccc2N1C(=O)c1ccc2ccccc2n1 false (0)
NC(=O)[C@@H]1[C@H]2C(=O)O[C@H](c3ccccc3)[C@H](c3ccccc3)N2[C@H](c2ccc(O)cc2)[C@@]12C(=O)Nc1ccc(C#CC3(O)CCCCCC3)cc12 false (0)

API: the following record is the query input.
Reported composite z-score at or above 0.7? `CN(C)CCCC[C@@H]1NC(=O)[C@H]2C[C@@H](C(=O)NCCCCCNC(=O)CS)[C@@H](c3cccc(OCCO)c3)N2C1=O`
false (0)

----------
Entries and their composite z-score values follow.
- System: Sam68 (KHDRBS1)
- METHOD SUMMARY: Sam68 small-molecule binders, primary screen, biochemical, small-molecule microarray, 635 nm fluorescence (AID 1125);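 also: score merges 667 nm channel intensity with signal to noise over triplicate slides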
- CONDITION INFO: small-molecule microarray binding, higher = more signal

// below: answered molecules
MOLECULE	TESTED SYSTEM	RESULT
C=CC[C@]12N=C(c3ccc(OCCCO)cc3)O[C@H]1c1ccccc1N(Cc1ccccc1)C2=O	Sam68 (KHDRBS1)	0.98
CCOC(=O)C[C@H]1[C@H](OC(=O)c2cc3ccccc3oc2=O)[C@@H](NC(=O)Cc2ccc(OC)cc2)c2cc(OCCCO)ccc2N1C(=O)c1ccccc1	Sam68 (KHDRBS1)	0.687
COC(=O)[C@@]1(Cc2ccc(OC)cc2)[C@H]2c3cc(C(=O)N4CCCC4)n(Cc4ccccc4)c3C[C@H]2CN1C(=O)c1ccccc1	Sam68 (KHDRBS1)	0.846
CN(C)CCCNC(=O)[C@@]1(c2ccc([N+](=O)[O-])cc2)CC(=O)N(C2CCCCC2)[C@@H]1c1ccc(CO)cc1I	Sam68 (KHDRBS1)	1.34
CO[C@H]1O[C@H](CO)[C@@H](OC(=O)Nc2ccc(Br)cc2)[C@H](OC(=O)c2cc3ccccc3[nH]2)[C@H]1OC(=O)c1cc2ccccc2[nH]1	Sam68 (KHDRBS1)	1.33

composite z-score lookup needed for COCCCNC(=O)C1N=C(c2ccc(OCCCO)cc2)N(c2ccccc2)O1 (stereo not drawn) , thanks.
1.3

composite z-score lookup needed for CN1C(=O)C2C=CC(C(O)c3ccc(-c4ccccc4)s3)N(N(c3ccccc3)c3ccccc3)C2C1=O (stereo not drawn) , thanks.
0.749

composite z-score lookup needed for `COCCOC(=O)N1C(=O)[C@@]2(c3cc(C#CCNC(N)=O)ccc31)[C@H](C(=O)NC[C@H](O)c1ccccc1)[C@H]1C(=O)O[C@H](c3ccccc3)[C@H](c3ccccc3)N1[C@@H]2c1ccccc1OCCO` , thanks.
1.28

----------
- METHOD SUMMARY: adipocyte viability effects, profiling panel, cell-based, 3T3-L1 adipocytes, calcein-AM fluorescence, 48 h, basal (AID 1163); also: test concentration not given here
- CONDITION INFO: 3T3-L1 adipocytes viability, higher = more signal
Entries and their z-score values follow.
Format: numeric value only, no unit, no commentary.

// below: answered compounds
COMPOUND	z-score
CCCC=C(CCC)[C@@H](NS(=O)(=O)c1cccs1)c1ccc(C(=O)OC)cc1	0.532
COC(=O)[C@@]1(Cc2ccc(F)cc2)[C@H]2c3cc(C(=O)N4CCCC4)n(Cc4ccc(C)o4)c3C[C@H]2CN1C(=O)c1ccccc1	0.681
CC(C)C[C@H]1NC(=O)[C@@]23C(=O)N[C@@H](Cc4ccccc4)C2[C@H](C)[C@@]2(C)O[C@H]2C3/C=C/C/C=C\CNC(=O)[C@H](Cc2ccccc2)NC1=O (stereo partly specified)	0.733

z-score lookup needed for `CC(=O)NCCCC[C@@H]1NC(=O)[C@@H]2C[C@H](C(=O)NCCCCCCNC(=O)CS)[C@H](c3cccc(OCCO)c3)N2C1=O` , thanks.
-0.834

z-score lookup needed for `COc1ccc(C(=O)Nc2ccc(CN3C(=O)[C@@]4(O[C@@H](CCO)[C@H]([Si](C)(C)c5ccc(OC)cc5)[C@H]4C)c4ccccc43)cc2)cc1` , thanks.
-0.736

z-score lookup needed for O=C1C2C=CC(C(O)c3c(F)cccc3Cl)N(Nc3ccccc3)C2C(=O)N1c1ccccc1 (stereo unspecified) , thanks.
-1.4

z-score lookup needed for `C=CCOC(=O)[C@H]1[C@@H]2C(=O)O[C@@H](c3ccccc3)[C@@H](c3ccccc3)N2[C@@H](c2ccc(OCCOC(=O)[C@H]3C[C@H]4C(=O)N5CCC[C@H]5C(=O)N4[C@H]3c3ccc(O)cc3)cc2)[C@]12C(=O)Nc1ccccc12` , thanks.
1.46

z-score lookup needed for `O=C1C[C@]2(c3ccc([N+](=O)[O-])cc3)C(=O)N(CCN3CCOCC3)c3cc(CO)ccc3[C@H]2N1C1CCCCC1` , thanks.
0.239

z-score lookup needed for O=C1OCCC/C=C\[C@H]2OC34C=CCN(Cc5ccccc5)C(=O)[C@H]3N(CCCCCCO)C(=O)[C@@H]4C12 (stereo partly specified) , thanks.
0.0451

----------
- METHOD SUMMARY: RPMI8226 myeloma cell viability, profiling panel, resazurin fluorescence, basal, 24 h, PK04 Diversity Set (AID 1180);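 also: RPMI8826 multiple myeloma cell line at 5000 cells per well; test concentration not given here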
- CONDITION INFO: higher = more signal
Entries and their z-score values follow.

// below: answered compounds
COMPOUND	RESULT
CCCN1C(=O)[C@]2(CCS(=O)(=O)c3ccccc3)N=C(c3ccc(OCCCO)cc3)O[C@@H]2c2ccccc21	-0.967
O=C1O[C@H](c2ccccc2)[C@H](c2ccccc2)N2[C@H]1[C@@H](C(=O)N1CCN(c3ncccn3)CC1)[C@]1(C(=O)Nc3ccc(C#CC4=CCCCC4)cc31)[C@H]2c1ccc(O)cc1	-0.441
O=C(NCc1ccccc1)[C@@]1(Cc2ccccc2)N=C(c2ccc(OCCCO)cc2)O[C@H]1c1ccccc1	-2.66

z-score lookup needed for COCCCNC(=O)C1N=C(c2ccc(OCCCO)cc2)N(c2ccccc2)O1 (stereo not given) , thanks.
0.694

z-score lookup needed for `[N-]=[N+]=NCc1ccccc1[C@@H]1OC(c2ccc(OCCCO)cc2)=N[C@]1(Cc1ccccc1N=[N+]=[N-])C(=O)N1CCOCC1` , thanks.
-1.64

z-score lookup needed for `O=C1O[C@@H](c2ccccc2)[C@@H](c2ccccc2)N2[C@@H](c3ccc(OCCO)cc3)[C@]3(C(=O)Nc4ccccc43)[C@@H](C(=O)NC[C@H](O)c3ccccc3)[C@H]12` , thanks.
-0.0509

z-score lookup needed for `COCCOC(=O)N1C(=O)[C@@]2(c3cc(C#CC4=CCCCC4)ccc31)[C@H](c1ccc(O)cc1)N1[C@H](c3ccccc3)[C@H](c3ccccc3)OC(=O)[C@H]1[C@@H]2C(N)=O` , thanks.
-2.95

z-score lookup needed for `O=C(NCC(F)(F)F)[C@@H]1c2ccccc2C(=O)N(C2CCCCC2)[C@H]1c1ccc(CO)cc1` , thanks.
0.538

z-score lookup needed for C=CCC(OC(C)=O)[C@@H]1[C@@H](N(Cc2ccc(-c3ccccc3)cc2)C(=O)Cc2ccc(F)cc2)c2cc(OCCCO)ccc2N1C(=O)c1ccc(-c2ccccc2)cc1 (stereo not given in full) , thanks.
1.48

----------
- METHOD SUMMARY: PSAC antagonists in infected red cells, primary screen, cell-based, P. falciparum Indochina, OD700, 18 h (AID 1157)
- CONDITION INFO: P. falciparum Indochina infected erythrocytes, osmotic lysis OD700, 18 h; higher = more signal, called active from +8 up or from −8 down
Use true (1) when the recorded z-score is no lower than 0.9; use false (0) when it is lower.

// known answers, use as guide
COMPOUND	CLASSIFICATION
C#CCN(CC=C(C)C)[C@H](CO)c1ccccc1	false (0)
COCCOC(=O)N1C(=O)[C@@]2(c3cc(C#Cc4ccc(OC)cc4)ccc31)[C@H](C(N)=O)[C@H]1C(=O)O[C@H](c3ccccc3)[C@H](c3ccccc3)N1[C@@H]2c1ccccc1OCCO	true (1)

API: the following record is the query input.
Reported z-score at or above 0.9? `O=C(NCc1ccccc1)[C@@]1(Cc2ccccc2)N=C(c2ccc(OCCCO)cc2)O[C@H]1c1ccccc1`
false (0)

Data origin: PubChem BioAssay
